- ASSAY TEXT: ATG_ISRE_CIS: Attagene CIS-FACTORIAL HepG2 Assay for human Interferon Regulatory Factor 1 (IRF1) binding to an Interferon-Stimulated Response Element (ISRE) (AID 2282948)
- PROTOCOL CONDITIONS: HepG2 ISRE cis-reporter (Attagene), mRNA transcription readout; actives raise or lower the signal
Activity calls are given as the source filed them. How the source made its calls: active means hit-call score of the fitted dose curve at least 0.9, where 1 is the maximum; inactive means score below 0.9.
Assign a class; possible classes are class 1 for active, class 0 for inactive

Worked cases, answers included:
STRUCTURE STRING: OC[C@H]1O[C@@H]2O[C@H]3[C@H](O)[C@@H](O)[C@@H](O[C@H]4[C@H](O)[C@@H](O)[C@@H](O[C@H]5[C@H](O)[C@@H](O)[C@@H](O[C@H]6[C@H](O)[C@@H](O)[C@@H](O[C@H]7[C@H](O)[C@@H](O)[C@@H](O[C@H]1[C@H](O)[C@H]2O)O[C@@H]7CO)O[C@@H]6CO)O[C@@H]5CO)O[C@@H]4CO)O[C@@H]3CO
CATEGORY LABEL: class 0
--
STRUCTURE STRING: O=C(O)c1cccc(C[C@@H]2COc3ccc(OCc4nc5cc(F)ccc5s4)cc3[C@@H]2O)c1
CATEGORY LABEL: class 1
--
STRUCTURE STRING: CNC(C)=O
CATEGORY LABEL: class 0

API: the following record is the query input.
Could you please tell me the result logged for `CC1(C)C(=O)N(Cl)C(=O)N1Cl` in this assay?
class 0

---

- Read-out: Apoptosis regulator Bcl-2 (Homo sapiens) (UniProt P10415)
- Sequence (P10415 whole entry, looked up): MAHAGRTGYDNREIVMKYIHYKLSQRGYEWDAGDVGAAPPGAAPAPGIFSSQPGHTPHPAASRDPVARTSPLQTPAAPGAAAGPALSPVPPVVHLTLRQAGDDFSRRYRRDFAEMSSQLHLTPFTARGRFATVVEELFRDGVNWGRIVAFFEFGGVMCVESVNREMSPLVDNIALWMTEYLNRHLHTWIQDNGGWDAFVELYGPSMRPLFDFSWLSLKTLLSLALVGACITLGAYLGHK
- ASSAY TEXT: LTEA_HepaRG_BCL2: Life Technologies and Expression Analysis (LTEA) Assay for Bcl-2 gene using HepaRG (AID 2283475);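 further: BCL2 transcript by TaqMan qRT-PCR normalised to ACTB GAPDH and POLR2A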
- PROTOCOL CONDITIONS: mRNA level, 48 h; actives raise or lower the signal
- Procedure: LTEA_HepaRG is a cell based, multiplexed-readout assay that uses HepaRG, a human liver cell line, with measurements taken at 48 hours after chemical dosing on a 96-well plate.LTEA_HepaRG_BCL2 is one of 102 assay component(s) measured in the LTEA HepaRG cell culture assay. It is a marker of Cell proliferation, survival, death.Data from the assay component LTEA_HepaRG_BCL2 was analyzed into 1 endpoint. […]
Calls of active or inactive are those of the source. The calls were made as follows: active = hit-call score of the fitted dose curve at least 0.9, where 1 is the maximum; inactive = score below 0.9.
Use one of these outcomes when replying: yes (active), no (inactive)

STRUCTURE STRING: NC(=O)N1c2ccccc2C=Cc2ccccc21
CATEGORY LABEL: no
--
STRUCTURE STRING: Cc1ncc([C@@H](CCCCCCc2ccc3c(n2)NCCC3)CC(=O)O)cn1
CATEGORY LABEL: no
--
STRUCTURE STRING: COc1cc(C(C)C)c2c(c1)S(=O)(=O)N(COc1cc(=O)n3cccc(OCCN4CCCCC4)c3n1)C2=O
CATEGORY LABEL: yes
--
STRUCTURE STRING: CCCCCCCCCC
CATEGORY LABEL: no
--
STRUCTURE STRING: C[C@@H](Oc1ccc(CNC(=O)c2cccnc2Oc2ccc3c(c2)OCO3)c(F)c1)C(=O)O
CATEGORY LABEL: no

For `c1ccc2c(c1)-c1cccc3c1c-2cc1ccccc13` , which call appears in the assay record?
yes

---

- Read-out: Matrix Metallopeptidase 1 (MMP1), MMP1 (gene 4312)
- ASSAY TEXT: BSK_hDFCGF_MMP1: BioMAP Diversity Plus: hDFCGF Assay for Matrix Metallopeptidase 1 (MMP1) Biomarker Activity (AID 2283064)
- PROTOCOL CONDITIONS: primary human foreskin fibroblasts; actives raise or lower the signal
The source made the active and inactive calls. The calls were made as follows: active = hit-call score of the fitted dose curve at least 0.9, where 1 is the maximum; inactive = score below 0.9.
ASSAY ENDPOINT: AC50

Some entries whose results are on file:
STRUCTURE STRING: CNC(C)=O
AC50: inactive

STRUCTURE STRING: Cc1ncc([C@@H](CCCCCCc2ccc3c(n2)NCCC3)CC(=O)O)cn1
AC50: inactive

STRUCTURE STRING: CC(=O)c1ccccc1
AC50: inactive

STRUCTURE STRING: CCCCCCCCCCCCCCCCOS(=O)(=O)O
AC50: 16.6 µM (active)

STRUCTURE STRING: NC(=O)N1c2ccccc2C=Cc2ccccc21
AC50: inactive

STRUCTURE STRING: FC(F)(F)COC(OCC(F)(F)F)OCC(F)(F)F
AC50: inactive

Quick one: AC50 of `O=C(Cl)C(F)(F)C(F)(F)C(F)(F)C(=O)Cl` ?
inactive

Another molecule to look at: `C[C@@H](Oc1ccc(CNC(=O)c2cccnc2Oc2ccc3c(c2)OCO3)c(F)c1)C(=O)O`
inactive

Try the molecule `OCCOCCOCCO`
inactive

And the next one, `O=C(O)c1cccc(C(=O)O)c1` ?
inactive

Again, but for `NC(N)=O`
inactive
